B1: A2 [not stated] / purified TRB3 protein [not stated] (parent complex)
chain 1: GGWLTRLLQTK
chain 2: MRATPLAAPAGSLSRKKRLELDDNLDTERPVQKRARSGPQPRLPPCLLPLSPPTAPDRATAVATASRLGPYVLLEPEEGGRAYQALHCPTGTEYTCKVYPVQEALAVLEPYARLPPHKHVARPTEVLAGTQLLYAFFTRTHGDMHSLVRSRHRIPEPEAAVLFRQMATALAHCHQHGLVLRDLKLCRFVFADRERKKLVLENLEDSCVLTGPDDSLWDKHACPAYVGPEILSSRASYSGKAADVWSLGVALFTMLAGHYPFQDSEPVLLFGKIRRGAYALPAGLSAPARCLVRCLLRREPAERLTATGILLHPWLRQDPMPLAPTRSHLWEAAQVVPDGLGLDEAREEEGDREVVLYG

Variants of: B1
protocol_text: SPR; TRB3 immobilized on CM5 sensor chips
Parameter Kd: see the listing below.
observed_property: Kd

mutation_string="chain 1 L4A" observed_property=Kd measured="4320 nM"
mutation_string="chain 1 G2A" observed_property=Kd measured="402 nM"
mutation_string="chain 1 T10A" observed_property=Kd measured="381 nM"
mutation_string="chain 1 T5A" observed_property=Kd measured="110 nM"
mutation_string="chain 1 K11A" observed_property=Kd measured="73.1 nM"
mutation_string="chain 1 Q9A" observed_property=Kd measured="35600 nM"
mutation_string="chain 1 L7A" observed_property=Kd measured="11800 nM"
mutation_string="chain 1 W3A" observed_property=Kd measured="3590 nM"
mutation_string="chain 1 R6A" observed_property=Kd measured="0.142 nM"
mutation_string="chain 1 G1A" observed_property=Kd measured="1640 nM"
